Source: paper PMC7232165

measurement.description: in vitro
Format: cell-based
experimental.parameters: human, TZM-GFP cells, 72 h, XTT; mean ± standard deviation; read-out: CC50 (concentration of compound causing 50% cell death)
observable: CC50 at 72 h

• Cc1ccccc1-c1nnc(S)n1CC(=O)NNc1ccccc1 = > 100 µM
• COC(=O)[C@@H]1CCCN1C(=O)[C@H](Cc1cccc2cc[nH]c12)NC(=O)Cn1c(=O)[nH]c2ccccc2c1=O = < 100 µM
• Cc1ccc(NNC(=O)Cn2c(S)nnc2-c2cccc3ccccc23)cc1 = > 100 µM
• N#Cc1cccc(NNC(=O)Cn2c(S)nnc2-c2ccccc2)c1 = > 100 µM
